Molecular target: SARS-CoV-2 S1 protein (HIS tag, active trimer; Acro Biosystems #SPN-C52H8) (SARS-CoV-2, UniProt P0DTC2 16-1213)
Test: ELISA on coated S active trimer
Measured EC50 values are reported for all entries that follow.
quantityMeasured: EC50 (ng/mL)

1. P043.A.00047.H08 (protein sample ID 447) (antibody, V domains shown, also called antibody with the Protein sample ID 447) VH: QSLEESGGDLVKPGASLTLTCTASGFSFSSDGMCWVRQAPGKGLEWIACIAAGSSGSTYYATWAQGRFTISKSSSTTVTLQMTSLTAADTATYFCAGEDYTGNNYYALWGPGTLVTVSS VL: AIDMTQTPSPVSAVVGDTVTINCQASENIYSFLAWYQQKPGQPPKLLIYFASKLASGVPSRFKGSGSGTQFTLTISDVHSDDAAIYYCQQTGTYSDADNTFGGGTEVVVK    9.1
2. P043.A.00092.C12 (antibody, V domains shown, also called 472; protein sample ID 472) VH: QEELKETGGGLVQPGGSLTLSCKASGFDFSSYYMSWVRQAPGKGLEWIGVIYASKGSTDYASWVNGRFTISSDNAQNTVDLQMNSLTAADTATYYCARSKRFYTYGYAGYAYAHYYYGMDLWGPGTLVTVSS VL: AIQMTQSPSSLAASVGDTVTITCKASEDIGYGLNWYQQKLGIAPKLLIYGADTLESGVPSRFSGSGSETDYTLTISSVQAEDAGIYYCQQGYSTPLTFGAGTKVEIK    10.6
3. P043.A.00017.E04 (antibody, V domains shown) VH: QSVEESGGRLVTPGTPLTLTCTVSGFSLNNYAMNWVRQAPGKGLEWIGIISSSGNTYYANWAKGRFTISKTSTTVDLKITSPTTEDTATYFCARDSYPGYSPYYGMDPWGPGTLVTVSS VL: AIQMTQSPSSLAASVGDTVTITCKASEDIAYGLNWYQQKLGITPKLLIYGANTLESGVPSRFSGSGSETHYTLTISSVQAEDAGIYYCQQGYNTPPTFGAGTKVEIK    6.4
4. P043.A.00117.C08 (protein sample ID 469) (antibody, V domains shown) VH: QSLEESGGGLVKPEGSLTLTCKASGFDLNTYYYMCWVRQAPGKGLEWIACIGTSDSGHTAYASWARGRFTISKTSSTTVTLQMTGLTAADTATYFCARGGRSVGDGVDLWGPGTLVTVSS VL: DIVMTQTPASVEAAVGGTVTIKCQASQSISSWLAWYQQKPGQPPKLLIYDAFDLASGVPSRFKGSGSGTEFTLTISDLESADAATYYCQSYLYGESGSHGFGFGGGTEVVVR    7.8
5. P043.A.00032.C04 (antibody, V domains shown, also called 452; protein sample ID 452) VH: QSLEESGGRLVTPGTPLTLTCTASGFSLSSYWMSWVRQAPGKGLEWIGIIYVSGSTYYASWAKGRFTISKTSTTVDLKMTSLTTEDTATYFCARVDYSTGWPLFNIWGPGTLVTVSL VL: AQVLTQTASPVSAAVGGTVTINCQSSQSVYDNNWLGWYQQKPGQPPKLLIYGASILASGVPSRFKGSGSGTQFTLTISDLESDDAATYYCQGGCSGNTFVFGGGTEVVVK    8.2
6. P043.A.00036.C07 (antibody, V domains shown, also called 448; protein sample ID 448) VH: QSLEESGGDLVKPGASLTLTCTASGFSFSSSYWICWVRQAPGKGLEWIGCIYTGSGSTWYASWAKGRFTISKTSSTTVTLQMTSLTAADTATYFCARGYGSYMYDFWGPGTLVTVSS VL: DVVMTQTPASVEAAVGGTVTIKCQASQSISTALAWYQQKPGQPPKLLIYSASTLESGVPSRFKGSGSGTEFTLAISDLESADAATYYCQGADGSSSSFGGGTEVVVK    7.7
7. P043.A.00095.D06 (protein sample ID 470) (antibody, V domains shown, also called S1 targeting antibody 470; anti-S1-antibody 470) VH: QEQLEESGGDLVKPEGSLTLTCTASGFSFSSNYWICWVRQAPGKGLEWIGCIYIGSGDTYYASWAKGRFTISKTSSTTVTLQMTSLTAADTATYFCARSYTPGSYYNMNLWGPGTLVTVSS VL: DVVMTQTPSSVSAAVGGTVTINCQASQQISNELSWYQQKSGQPPKLLIYDASDLASGVPSRFKGSGSGTEFTLTISDLESADAATYYCQSTGGASSDGNAFGGGTEVVVK    6.9
8. P043.A.00017.E07 (protein sample ID 449) (antibody, V domains shown) VH: QSVEESGGRLVTPGTPLTLTCTVSGFSLSSYAMSWVRQAPGKGLEWIGIISSSGSTYYASWAKGRFTISKTSTTVDLKITSPTTEDTATYFCARAMYPGYSTGVYNIWGPGTLVTVSL VL: AIQMTQSPSSLAASVGDTVTITCKASEDIGYELNWYQQKLGIAPKLLIYGANTLESGVPSRFSGSGSETDYTLTISSVQAEDAGIYYCQQGYNTPNTFGAGTKVEIK    6.6
9. P043.A.00097.B02 (antibody, V domains shown) VH: QELVESGGGLVQAGESLKLSCKASGIDFSSYGISWVRQAPGKGLEWIAYIYPGFGITNYANSVKGRFTISSDNAQNTVFLQMTSLTASDTATYFCTRAYASSSGYYIHYFNLWGPGTLVTVSS VL: AIQMTQSPSSLAASVGDTVTITCKASEDIGYGLNWYQQKLGIAPKLLIYGANTLESGVPSRFSGSGSETDYTLTISSVQAEDAGIYYCQQAYSTPLTFGAGTKVEIK    6.9
10. P043.A.00018.C02 (protein sample ID 450) (antibody, V domains shown) VH: QSVEESGGRLVTPGTPLTLTCTVSGFSLSSYAMSWVRQAPGKGLEWIGIINSGRSTYYASWAKGRFTISKTSTTVDLKITSPTTEDTATYFCARDATSIGYYRYYGMDPWGPGTLVTVSS VL: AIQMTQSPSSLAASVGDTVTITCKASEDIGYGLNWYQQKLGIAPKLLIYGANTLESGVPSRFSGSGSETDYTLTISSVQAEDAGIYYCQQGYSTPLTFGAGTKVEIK    6.6
